TEST_SYSTEM: Oxysterols receptor LXR-alpha (Homo sapiens)
Sequence (whole entry): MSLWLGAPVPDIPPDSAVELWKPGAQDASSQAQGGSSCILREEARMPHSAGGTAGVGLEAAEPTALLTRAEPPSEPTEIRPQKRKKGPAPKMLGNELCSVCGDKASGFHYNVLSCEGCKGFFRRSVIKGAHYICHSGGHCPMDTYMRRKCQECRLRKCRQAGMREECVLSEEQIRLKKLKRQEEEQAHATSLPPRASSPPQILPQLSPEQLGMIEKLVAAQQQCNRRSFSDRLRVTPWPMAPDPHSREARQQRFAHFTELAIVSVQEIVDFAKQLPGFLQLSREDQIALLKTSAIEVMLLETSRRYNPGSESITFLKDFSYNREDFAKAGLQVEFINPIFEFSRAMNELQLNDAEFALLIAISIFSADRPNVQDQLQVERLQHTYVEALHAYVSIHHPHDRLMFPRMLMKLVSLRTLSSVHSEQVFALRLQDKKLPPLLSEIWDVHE
METHOD_SUMMARY: Agonist activity at human LXRalpha assessed as association of SRC1 to LXRalpha ligand binding domain by FRET based cell-free ligand sensing assay relative 2-(3-(3-((2-chloro-3-(trifluoromethyl)benzyl)(2,2-diphenylethyl)amino)propoxy)phenyl)acetic acid
Tick TRUE if Activity is 80% or greater. Tick FALSE if Activity is less than 80%.

Some solved entries appear below for comparison.
CCC(CC)(C(=O)O)c1cccc(OCCCN(Cc2cccc(C(F)(F)F)c2Cl)CC(c2ccccc2)c2ccccc2)c1 ... FALSE
C[C@@H](CCOc1cccc(CC(=O)O)c1)N(Cc1cccc(C(F)(F)F)c1Cl)CC(c1ccccc1)c1ccccc1 ... TRUE
C[C@H](CCOc1cccc(CC(=O)O)c1)N(Cc1cccc(C(F)(F)F)c1Cl)CC(c1ccccc1)c1ccccc1 ... TRUE
CC(C(=O)O)c1cccc(OCCCN(Cc2cccc(C(F)(F)F)c2Cl)CC(c2ccccc2)c2ccccc2)c1 (stereo not drawn) ... TRUE
CC(C)(C(=O)O)c1cccc(OCCCN(Cc2cccc(C(F)(F)F)c2Cl)CC(c2ccccc2)c2ccccc2)c1 ... TRUE

Problem: Exam item: decide whether the reported Activity for C[C@H](CCOc1cccc(C(C)(C)C(=O)O)c1)N(Cc1cccc(C(F)(F)F)c1Cl)CC(c1ccccc1)c1ccccc1 is at least 80%.
Solution: TRUE

Problem: Exam item: decide whether the reported Activity for C[C@@H](CCN(Cc1cccc(C(F)(F)F)c1Cl)CC(c1ccccc1)c1ccccc1)Oc1cccc(CC(=O)O)c1 is at least 80%.
Solution: FALSE

###

TEST_SYSTEM: Oxysterols receptor LXR-alpha (Homo sapiens)
METHOD_SUMMARY: Agonist activity at human LXRalpha assessed as association of SRC1 to LXRalpha ligand binding domain by FRET based cell-free ligand sensing assay relative 2-(3-(3-((2-chloro-3-(trifluoromethyl)benzyl)(2,2-diphenylethyl)amino)propoxy)phenyl)acetic acid
Listed here are compounds together with their documented Activity.
Numeric answer only, unit % assumed.

Example entries and their recorded answers appear below.
O=C(O)Cc1ccc2oc(CCN(Cc3cccc(C(F)(F)F)c3Cl)CC(c3ccccc3)c3ccccc3)cc2c1 ... 20
O=C(O)C1CCCc2c(OCCCN(Cc3cccc(C(F)(F)F)c3Cl)CC(c3ccccc3)c3ccccc3)cccc21 (racemic) ... 100

Problem: API: value(readout=Activity, system=Oxysterols receptor LXR-alpha (Homo sapiens)) for record O=C(O)Cc1ccc2cc(CCN(Cc3cccc(C(F)(F)F)c3Cl)CC(c3ccccc3)c3ccccc3)oc2c1
Solution: 53

Problem: API: value(readout=Activity, system=Oxysterols receptor LXR-alpha (Homo sapiens)) for record C[C@@H](COc1cccc(CC(=O)O)c1)CN(Cc1cccc(C(F)(F)F)c1Cl)CC(c1ccccc1)c1ccccc1
Solution: 67

###

METHOD_SUMMARY: Half life in Sprague-Dawley rat at 2.6 mg/kg, iv
Type: ADME, organism-based
Set-up: dose 2.6 mg/kg, route intravenous
MEASUREMENT_PARAMETERS: in vivo
MEASUREMENT_KIND: half-life (h)
Numeric answer only, unit h assumed.

Problem: Could you tell me which half-life is on file for C[C@H](CCOc1cccc(CC(=O)O)c1)N(Cc1cccc(C(F)(F)F)c1Cl)CC(c1ccccc1)c1ccccc1 ?
Solution: 1.82

###

Test system: Macrophage
METHOD_SUMMARY: Increase in ABCG1 gene expression in human primary macrophages at 100 nM relative to control
Type: functional
Listed here are compounds together with their documented fold change (FC).
// keep it numeric: no unit symbol after the value

Example entries and their recorded answers appear below.
O=C(O)C1CCCc2c(OCCCN(Cc3cccc(C(F)(F)F)c3Cl)CC(c3ccccc3)c3ccccc3)cccc21 (racemic) ... 3.6
CC(C)(C(=O)O)c1cccc(OCCCN(Cc2cccc(C(F)(F)F)c2Cl)CC(c2ccccc2)c2ccccc2)c1 ... 11.2
C[C@H](CCOc1cccc(CC(=O)O)c1)N(Cc1cccc(C(F)(F)F)c1Cl)CC(c1ccccc1)c1ccccc1 ... 8

Problem: Could you tell me which fold change (FC) is on file for O=C(O)Cc1cccc(OCCCN(Cc2cccc(C(F)(F)F)c2Cl)CC(c2ccccc2)c2ccccc2)c1 ?
Solution: 5.4

###

System: Macrophage
METHOD_SUMMARY: Increase in ABCG1 gene expression in human primary macrophages at 30 nM relative to control
Type: functional
MEASUREMENT_KIND: fold change (FC)

Example entries and their recorded answers appear below.
O=C(O)Cc1cccc(OCCCN(Cc2cccc(C(F)(F)F)c2Cl)CC(c2ccccc2)c2ccccc2)c1 ... 3.2
O=C(O)C1CCCc2c(OCCCN(Cc3cccc(C(F)(F)F)c3Cl)CC(c3ccccc3)c3ccccc3)cccc21 (racemic) ... 2
CC(C)(C(=O)O)c1cccc(OCCCN(Cc2cccc(C(F)(F)F)c2Cl)CC(c2ccccc2)c2ccccc2)c1 ... 7.5

Could you now look at the following compound, please?
Problem: Could you tell me which fold change (FC) is on file for C[C@H](CCOc1cccc(CC(=O)O)c1)N(Cc1cccc(C(F)(F)F)c1Cl)CC(c1ccccc1)c1ccccc1 [ABEQUOLIXRON] ?
Solution: 4.2

###

TEST_SYSTEM: Oxysterols receptor LXR-beta (Homo sapiens)
Sequence (P55055 whole entry): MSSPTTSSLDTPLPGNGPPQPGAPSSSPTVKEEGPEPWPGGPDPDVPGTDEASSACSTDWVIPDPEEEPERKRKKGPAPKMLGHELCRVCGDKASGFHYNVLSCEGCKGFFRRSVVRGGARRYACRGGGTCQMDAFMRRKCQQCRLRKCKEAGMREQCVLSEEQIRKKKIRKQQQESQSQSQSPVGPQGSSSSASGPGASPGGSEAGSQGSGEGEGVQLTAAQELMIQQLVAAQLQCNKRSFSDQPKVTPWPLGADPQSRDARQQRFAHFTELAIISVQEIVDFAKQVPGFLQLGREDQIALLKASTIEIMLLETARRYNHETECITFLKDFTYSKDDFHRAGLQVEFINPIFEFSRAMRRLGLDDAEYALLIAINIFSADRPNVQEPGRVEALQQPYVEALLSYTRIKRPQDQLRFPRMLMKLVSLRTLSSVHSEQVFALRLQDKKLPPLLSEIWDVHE
METHOD_SUMMARY: Agonist activity at human LXRbeta assessed as association of SRC1 to LXRbeta ligand binding domain by FRET based cell-free ligand sensing assay
Listed here are compounds together with their documented EC50.
Numeric answer only, unit nM assumed.

Problem: Could you tell me which EC50 is on file for C[C@@H](CCOc1cccc(CC(=O)O)c1)N(Cc1cccc(C(F)(F)F)c1Cl)CC(c1ccccc1)c1ccccc1 ?
Solution: 87

###

METHOD_SUMMARY: Cmax in Sprague-Dawley rat at 2.6 mg/kg, iv
Type: ADME, organism-based
Set-up: dose 2.6 mg/kg, route intravenous
MEASUREMENT_PARAMETERS: in vivo
MEASUREMENT_KIND: Cmax (ng/mL)
Numeric answer only, unit ng/mL assumed.

Problem: Could you tell me which Cmax is on file for C[C@H](CCOc1cccc(CC(=O)O)c1)N(Cc1cccc(C(F)(F)F)c1Cl)CC(c1ccccc1)c1ccccc1 ?
Solution: 2130

###

TEST_SYSTEM: Oxysterols receptor LXR-alpha (Homo sapiens)
METHOD_SUMMARY: Agonist activity at human LXRalpha assessed as association of SRC1 to LXRalpha ligand binding domain by FRET based cell-free ligand sensing assay
Listed here are molecules together with their documented EC50.
Numeric answer only, unit nM assumed.

Example entries and their recorded answers appear below.
C[C@H](CCN(Cc1cccc(C(F)(F)F)c1Cl)CC(c1ccccc1)c1ccccc1)Oc1cccc(CC(=O)O)c1 ... 200
C[C@H](CCOc1cccc(CC(=O)O)c1)N(Cc1cccc(C(F)(F)F)c1Cl)CC(c1ccccc1)c1ccccc1 [ABEQUOLIXRON] ... 74
CC(C)(C(=O)O)c1cccc(OCCCN(Cc2cccc(C(F)(F)F)c2Cl)CC(c2ccccc2)c2ccccc2)c1 ... 43
O=C(O)Cc1cccc(OCCCN(Cc2cccc(C(F)(F)F)c2Cl)CC(c2ccccc2)c2ccccc2)c1 ... 200

Problem: Could you tell me which EC50 is on file for C[C@H](CCOc1cccc(C(C)(C)C(=O)O)c1)N(Cc1cccc(C(F)(F)F)c1Cl)CC(c1ccccc1)c1ccccc1 ?
Solution: 9
